meta.source: paper PMC7932537

# Lookup of reported relative probability (RP) (acc.to MMP2) keyed by entry
test system: MMP-2; assay: Substrate phage display with NGS: relative probability (RP) of P3-P1' tetramer clusters; format: biochemical, human; conditions: RP of matching tetramer of the cleavage site; unique part of MMP9 selectome
Number only, no unit.

substance	readout	value
QQPFA-SVMTDE [MS detected cleavage site in Semaphorin-3D (O95025)]	relative probability (RP) (acc.to MMP2)	3.01
FCPMA-AHEEIC [MS detected cleavage site in Fibronectin (P02751)]	relative probability (RP) (acc.to MMP2)	3.68
KHIYY-ITGETK [MS detected cleavage site in Heat shock protein HSP 90-alpha (P07900)]	relative probability (RP) (acc.to MMP2)	0.69

Field: next substance
Returns the measured relative probability (RP) (acc.to MMP2) for the input substance. Input: KPPRL-VGGPMD [MS detected cleavage site in Cystatin-C (P01034)]
0.07

====

tested on: MMP-2; assay: Substrate phage display with NGS: relative probability (RP) of P3-P1' tetramer clusters; assay type: biochemical, human; settings: RP of the P3-P1' tetramer cluster contained in the hexamer; 200 nM MMP-2, 2 h, 37°C, two rounds of selection
readout: relative probability (RP)
// keep it numeric: no unit symbol after the value

Use these answered entries as a reference point.
substance	readout	value
PQPEGL	relative probability (RP)	29.5031
GQPMNL	relative probability (RP)	32.5586

Please look up its relative probability (RP): MSPANI
33.5547

Next substance up: GEPRGQ
29.4864

And then QSPINL , what is it?
31.6393

What about PGPIGI ?
31.281

Lookup KSPVGV
27.6556

Then this substance: KSPQAM
28.5429

Check PHGYKG too.
24.9359

And the next one, HPVSMV ?
30.0644

And then PRPQAA , what is it?
27.2115

What do we get for TTPSPI ?
32.5241

Continue with TPAAMT
33.3115

And what about the substance GPHGYK ?
24.9359

Okay, and EGPAGL ?
36.0156

Entry to check: QPLEIR
19.9123

Next substance up: PEPAAL
35.8015

Try this substance too: GEPFEL
15.9169

Cool, now LPKPLR
33.5622

====

test system: MMP-2; test: N-terminomic (TMT) analysis of MMP-treated HEK293 secretome: isotopic enrichment of novel N-termini; format: biochemical, human; conditions: HEK293 secretome, 750 nM MMP-2, 2 h, 37 C; TMT reporter ratio vs untreated control, LC-MS/MS, duplicate
readout: isotopic enrichment (log2(ratio)) (acc.to MMP2)

Worked cases, answers included:
substance	value
QQPFA-SVMTDE [MS detected cleavage site in Semaphorin-3D (O95025)]	0.2016 log2(ratio)
NHIRY-VISQGN [MS detected cleavage site in Fibrillin-2 (P35556)]	1.367 log2(ratio)
LPPDH-LNGVKL	1.257 log2(ratio)

Shifting focus to the substance that follows.
So what's the measured isotopic enrichment (log2(ratio)) (acc.to MMP2) for this one? KSIYY-ITGESK [MS detected cleavage site in Heat shock protein HSP 90-beta (P08238)]
0.3785 log2(ratio)

====

system: MMP-9; test: N-terminomic (TMT) analysis of MMP-treated HEK293 secretome: isotopic enrichment of novel N-termini; format: biochemical, human; conditions: MS detected cleavage sequence, HEK293 proteins; unique part of MMP2 selectome
readout: isotopic enrichment (log2(ratio)) (acc.to MMP9)

Worked set:
substance	value
QLNAQ-LAAGNP	0.8237 log2(ratio)
GRSAP-LAAGCP	3.246 log2(ratio)
LFIGG-LSFETT	1.4957 log2(ratio)

Here is the next item to consider.
Using the record for SHLGR-YLAADK , report its isotopic enrichment (log2(ratio)) (acc.to MMP9).
-1.0291 log2(ratio)

====

tested on: MMP-9; experiment: N-terminomic (TMT) analysis of MMP-treated HEK293 secretome: isotopic enrichment of novel N-termini; assay type: biochemical, human; details: MS detected cleavage sequence, HEK293 proteins; common MMP2-9 selectome
readout: isotopic enrichment (log2(ratio)) (acc.to MMP9)

For orientation, consider the following solved cases.
substance	value
QSPVA-VSQSKP	4.621 log2(ratio)
VAAKN-LQEAEE	2.192 log2(ratio)
VLPVN-VTDYCQ	3.756 log2(ratio)
FNPLS-LEELGS	1.82 log2(ratio)
MVPRA-VYLPNC	2.491 log2(ratio)
ETAIN-ITTYPD	2.536 log2(ratio)

Endpoint output: isotopic enrichment (log2(ratio)) (acc.to MMP9) of VCPRG-YVTSTD . Value?
5.174 log2(ratio)

====

Known isotopic enrichment (log2(ratio)) (acc.to MMP2) of a selection of substances
test system: MMP-2; assay: N-terminomic (TMT) analysis of MMP-treated HEK293 secretome: isotopic enrichment of novel N-termini; assay type: biochemical, human; details: MS detected cleavage sequence, HEK293 proteins; common MMP2-9 selectome

Worked set:
substance	assaySystem	value
ETAIN-ITTYPD	MMP-2	1.84 log2(ratio)
FSLFG-LGGEPG	MMP-2	1.417 log2(ratio)
GSPDA-LQNPCY	MMP-2	0.926 log2(ratio)
RTLRA-VCGQPG	MMP-2	0.2987 log2(ratio)
MSPQL-LYDAAP	MMP-2	0.5656 log2(ratio)
EAPRP-YSKQVS	MMP-2	1.239 log2(ratio)

Which isotopic enrichment (log2(ratio)) (acc.to MMP2) reading was recorded for the substance TGPRF-LISDRD ?
1.669 log2(ratio)

// next record TDPSK-LDSGKE
1.911 log2(ratio)

Then this substance: AGAAA-LSSASS
2.491 log2(ratio)

Moving on to the next substance: DAPRA-VFPSIV
1.669 log2(ratio)

// same read-out, input: MEPVA-HFGLGK
0.3448 log2(ratio)

Another substance to look at: LDVGG-LQETDK
3.076 log2(ratio)

Try this substance too: GLPRE-LAEAVA
0.7485 log2(ratio)

Can you handle APPAA-VAAVAG next?
2.4957 log2(ratio)

Quick one: PEPPP-LSGAPQ
1.367 log2(ratio)

Same question for PFPDG-LAEDID please.
0.9928 log2(ratio)

Follow-up item: FNPLS-LEELGS
0.84 log2(ratio)

====

tested on: MMP-9; experiment: N-terminomic (TMT) analysis of MMP-treated HEK293 secretome: isotopic enrichment of novel N-termini; assay type: biochemical, human; conditions: MMP9; HEK293 proteins, common set of MMP2-9 selectome; LC-MS/MS
readout: isotopic enrichment (log2(ratio)) (acc.to MMP9)
Please reply with the value in numeric form only.

Consider the reported isotopic enrichment (log2(ratio)) (acc.to MMP9) for these substances:
substance	value
FSLFG-LGGEPG	2.104
GRTLG-LYGKDQ	3.7845

GET /values?readout=isotopic enrichment (log2(ratio)) (acc.to MMP9)&item= SSPRH-SEAATA
4.654

// next record HLVRN-IQLEQP
3.981

====

Listed substances paired with reported relative probability (RP)
test system: MMP-9; assay: Substrate phage display with NGS: relative probability (RP) of P3-P1' tetramer clusters; type: biochemical, human; conditions: MMP9; RP of the P3-P1' tetramer contained in the hexamer substrate (substrate phage display, NGS);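 also: ratio of tetramer probability after protease selection to that in naive phage library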
I'd appreciate a reply containing only the number, no unit.

Which value of relative probability (RP) has been reported for PHGYKG in the records?
44.1642

Repeat for the following substance: IPLASL
34.6637

Again, but for TTPSPI
43.889

Entry to check: PMDIHA
39.7367

Also, SPMAFS please.
45.5118

Query KSPVGV next
34.3287

Also check KSPQAM
47.1106

====

Reported isotopic enrichment (log2(ratio)) (acc.to MMP9) is given for each of the following substances.
system: MMP-9; assay: N-terminomic (TMT) analysis of MMP-treated HEK293 secretome: isotopic enrichment of novel N-termini; format: biochemical, human; conditions: MMP9; HEK293 proteins, common set of MMP2-9 selectome; LC-MS/MS
// response body must contain only the number

substance	assaySystem	value
PTAAA-IAYGLD	MMP-9	0.8074
SSAAA-LSLCEG	MMP-9	0.3785
ADIAF-LIDGSF	MMP-9	0.8797
SDPLT-LLQADT	MMP-9	2.254
PEPPP-LSGAPQ	MMP-9	1.9855
FHPEQ-LITGKE	MMP-9	2.628
DMAAA-MKAVTE	MMP-9	1.328
EEPLN-VGSVAA	MMP-9	3.642

Query (substance): TRPLA-VEVVTE ; field requested: isotopic enrichment (log2(ratio)) (acc.to MMP9)
4.995

# repeat for SYAGS-LAEPYE
0.9635

====

system: MMP-2; assay: N-terminomic (TMT) analysis of MMP-treated HEK293 secretome: isotopic enrichment of novel N-termini; assay type: biochemical, human; settings: MMP2 cleaved HEK293 proteins, common set of MMP2-9 selectome; LC-MS/MS
Returns: string. Value is 1 if measured isotopic enrichment (log2(ratio)) (acc.to MMP2) is below 2, and 0 if it is greater than or equal to it.

Known results for substances:
substance	assaySystem	labelValue
TGPRF-LISDRD	MMP-2	1
GFLAW-LYNESP	MMP-2	0
LDVGG-LQETDK	MMP-2	0
ADIAF-LIDGSF	MMP-2	1
PTPVP-VVGSQM	MMP-2	1

Lab note: isotopic enrichment (log2(ratio)) (acc.to MMP2) threshold 2. Does this substance come in strictly under it? KYIGN-MHGNEA
1

Param item: DAPRA-VFPSIV
1

Try this substance too: VCPRG-YVTSTD
0
